biological target: Zika virus envelope protein, strain MR766-NIID (Uganda 1947) (Zika virus strain MR766-NIID (Uganda …, UniProt Q32ZE1 291-790))
Sequence (Q32ZE1 291-790 limits assumed): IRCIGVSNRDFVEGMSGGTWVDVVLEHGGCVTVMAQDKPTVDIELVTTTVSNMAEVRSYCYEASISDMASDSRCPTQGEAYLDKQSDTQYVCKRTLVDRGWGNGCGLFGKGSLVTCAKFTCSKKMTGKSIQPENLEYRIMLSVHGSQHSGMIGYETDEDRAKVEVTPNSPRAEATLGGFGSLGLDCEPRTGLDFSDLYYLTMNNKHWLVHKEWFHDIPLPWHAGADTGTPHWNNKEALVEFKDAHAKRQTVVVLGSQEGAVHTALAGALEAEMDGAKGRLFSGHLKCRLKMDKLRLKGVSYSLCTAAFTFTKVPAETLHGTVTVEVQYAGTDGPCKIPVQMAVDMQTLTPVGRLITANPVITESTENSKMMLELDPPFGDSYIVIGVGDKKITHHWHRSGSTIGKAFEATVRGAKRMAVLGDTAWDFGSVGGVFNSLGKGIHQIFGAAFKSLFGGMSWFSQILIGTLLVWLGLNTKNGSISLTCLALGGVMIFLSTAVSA
metric: EC50 (read off the curve)

Task: What EC50 (read off the curve) value was documented for this binder, mAb 6 (antibody, V domains shown, also called VH.3 / VL.1) VH: EVQLVESGGGLVQPGGSLRLSCSASGFSFSTYSMHWVRQAPGKGLEYVSAITGEGDSAFYADSVKGRFTISRDNSKNTLYFEMNSLRPEDTAVYYCVGGYSNFYYYYTMDAWGQGTSVTVSS VL: EIVLTQSPASLSLSPGERATLSCRATQSISTFLAWYQHKPGQAPRLLIYDASTRASGVPARFSGSRSGTDFTLTISSLEPEDFAVYYCQQRYNWPPYSFGQGTKVEIK ?
Result: ~0.03 µg/mL

Task: What EC50 (read off the curve) value was documented for this binder, mAb 3 (antibody, V domains shown, also called VH.4 / VL.3) VH: EVQLVESGGGLVQPGGSLRLSCSASGFTFSTYSMHWVRQAPGKGLEYVSAITGEGDSAFYADSVKGRFTISRDNSKNTLYFEMNSLRPEDTAVYYCVGGYSNFYYYYTMDVWGQGTTVTVSS VL: EIVLTQSPATLSLSPGERATLSCRASQSISTFLAWYQHKPGQAPRLLIYDASTRATGVPARFSGSRSGTDFTLTISTLEPEDFAVYYCQQRYNWPPYTFGQGTKVEIK ?
Result: ~0.8 µg/mL

Task: What EC50 (read off the curve) value was documented for this binder, mAb 7 (antibody, V domains shown, also called VH.2 / VL.4) VH: EVQLLESGGGLVQPGGSLRLSCAASGFSFSTYSMHWVRQAPGKGLEWVSAISGEGDSAYYADSVKGRFEISRDNSKNTLYLQMNKVRAEDTAVYYCVGGYSNFYYYYTMDAWGQGTMVTVSS VL: DIVMTQSPASLSLSPGERATLSCRATQSIVTFLAWYQQKPGQAPRLLIYDASTNASGIPARFSGSRSGTDFTLTITRLEPEDFAVYYCQQRYNWPPYSFGQGTKLEIK ?
Result: ~0.03 µg/mL
